Target: Dual specificity testis-specific protein kinase 2 (Homo sapiens)
Sequence (Q96S53 whole entry): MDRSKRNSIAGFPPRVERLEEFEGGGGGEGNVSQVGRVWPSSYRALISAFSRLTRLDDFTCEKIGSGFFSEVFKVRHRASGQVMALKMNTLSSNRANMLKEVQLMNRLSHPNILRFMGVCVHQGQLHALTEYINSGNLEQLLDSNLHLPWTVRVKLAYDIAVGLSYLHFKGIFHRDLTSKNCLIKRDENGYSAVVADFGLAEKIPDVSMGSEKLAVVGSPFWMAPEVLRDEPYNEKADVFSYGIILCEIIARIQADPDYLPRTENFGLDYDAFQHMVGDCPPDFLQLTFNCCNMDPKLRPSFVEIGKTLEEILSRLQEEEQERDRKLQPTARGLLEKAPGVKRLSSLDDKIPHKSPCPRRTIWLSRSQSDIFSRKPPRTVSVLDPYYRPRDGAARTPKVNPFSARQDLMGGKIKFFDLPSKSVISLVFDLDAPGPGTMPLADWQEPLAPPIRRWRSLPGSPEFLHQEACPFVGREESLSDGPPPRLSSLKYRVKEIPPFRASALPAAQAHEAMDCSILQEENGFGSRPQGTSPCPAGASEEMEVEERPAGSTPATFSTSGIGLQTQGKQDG
experimental-endpoint: IC50 (µM)

- structure: "CN1C(=O)[C@@H](N2CCc3c(nn(Cc4ccccc4)c3Br)C2=O)COc2ccccc21"
  value-unit: "µM"
  observed-value: 1

---

Biological target: Cyclin-G-associated kinase (Homo sapiens, UniProt O14976)
experimental-endpoint: IC50

- structure: "CN1C(=O)[C@@H](N2CCc3c(nn(Cc4ccccc4)c3Br)C2=O)COc2ccccc21"
  observed-value: "1000 nM"

---

Target: Serine/threonine-protein kinase Sgk3 (Homo sapiens, UniProt Q96BR1)
Sequence (Q96BR1 whole entry): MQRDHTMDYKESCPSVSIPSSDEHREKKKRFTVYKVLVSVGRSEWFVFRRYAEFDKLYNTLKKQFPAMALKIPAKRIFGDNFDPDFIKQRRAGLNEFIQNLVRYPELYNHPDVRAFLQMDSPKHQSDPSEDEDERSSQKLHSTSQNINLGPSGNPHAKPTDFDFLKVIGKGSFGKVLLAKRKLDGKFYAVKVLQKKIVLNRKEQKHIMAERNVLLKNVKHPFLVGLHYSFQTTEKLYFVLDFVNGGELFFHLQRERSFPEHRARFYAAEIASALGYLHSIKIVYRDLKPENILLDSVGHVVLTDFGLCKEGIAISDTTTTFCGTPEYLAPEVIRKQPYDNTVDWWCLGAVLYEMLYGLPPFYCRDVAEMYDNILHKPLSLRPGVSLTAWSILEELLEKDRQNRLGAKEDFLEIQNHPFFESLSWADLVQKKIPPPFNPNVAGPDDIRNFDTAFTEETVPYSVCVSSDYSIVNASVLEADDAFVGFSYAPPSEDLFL
pIC50: −log10 of the molar value.
experimental-endpoint: pIC50

- structure: "CN1C(=O)[C@@H](N2CCc3c(nn(Cc4ccccc4)c3Br)C2=O)COc2ccccc21"
  experimental-endpoint: "pIC50"
  observed-value: 6.00

---

Target: Death-associated protein kinase 1 (Homo sapiens, UniProt P53355)
Sequence (P53355 whole entry): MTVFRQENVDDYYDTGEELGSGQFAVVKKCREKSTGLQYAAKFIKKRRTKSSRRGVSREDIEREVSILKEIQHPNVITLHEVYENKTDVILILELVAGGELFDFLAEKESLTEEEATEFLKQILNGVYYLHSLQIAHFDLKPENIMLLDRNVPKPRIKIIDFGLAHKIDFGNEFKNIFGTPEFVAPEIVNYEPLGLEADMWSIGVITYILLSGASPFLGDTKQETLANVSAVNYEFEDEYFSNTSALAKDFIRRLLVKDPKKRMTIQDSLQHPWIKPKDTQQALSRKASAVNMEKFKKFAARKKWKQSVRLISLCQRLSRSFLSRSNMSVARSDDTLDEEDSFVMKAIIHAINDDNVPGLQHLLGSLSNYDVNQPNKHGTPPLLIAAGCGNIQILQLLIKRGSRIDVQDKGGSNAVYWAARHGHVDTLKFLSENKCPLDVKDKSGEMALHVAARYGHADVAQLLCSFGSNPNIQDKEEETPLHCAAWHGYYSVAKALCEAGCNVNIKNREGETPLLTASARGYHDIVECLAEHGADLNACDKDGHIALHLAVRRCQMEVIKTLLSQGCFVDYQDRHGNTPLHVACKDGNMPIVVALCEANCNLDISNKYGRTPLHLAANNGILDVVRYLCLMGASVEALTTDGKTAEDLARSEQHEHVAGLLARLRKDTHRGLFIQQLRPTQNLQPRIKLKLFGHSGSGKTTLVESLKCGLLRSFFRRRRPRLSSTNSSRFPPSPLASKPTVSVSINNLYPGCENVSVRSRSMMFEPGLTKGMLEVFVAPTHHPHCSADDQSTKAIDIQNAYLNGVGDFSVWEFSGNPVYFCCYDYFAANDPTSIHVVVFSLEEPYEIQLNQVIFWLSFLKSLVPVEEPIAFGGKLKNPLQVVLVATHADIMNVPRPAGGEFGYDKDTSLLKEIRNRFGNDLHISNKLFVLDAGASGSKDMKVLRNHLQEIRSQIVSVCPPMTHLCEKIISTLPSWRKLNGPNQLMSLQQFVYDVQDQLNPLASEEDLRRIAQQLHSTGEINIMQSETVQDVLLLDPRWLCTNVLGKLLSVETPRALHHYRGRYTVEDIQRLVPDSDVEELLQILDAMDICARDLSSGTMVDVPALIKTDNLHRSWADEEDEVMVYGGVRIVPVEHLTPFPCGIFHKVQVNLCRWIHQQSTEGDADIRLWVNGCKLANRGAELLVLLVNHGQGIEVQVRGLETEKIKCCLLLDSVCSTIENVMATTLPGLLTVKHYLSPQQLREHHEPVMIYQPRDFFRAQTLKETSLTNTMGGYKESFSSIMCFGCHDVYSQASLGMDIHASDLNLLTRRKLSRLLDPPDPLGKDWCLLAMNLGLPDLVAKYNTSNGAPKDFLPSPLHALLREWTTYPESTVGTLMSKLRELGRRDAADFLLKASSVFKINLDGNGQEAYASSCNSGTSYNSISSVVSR

- structure: "CN1C(=O)[C@@H](N2CCc3c(nn(Cc4ccccc4)c3Br)C2=O)COc2ccccc21"
  IC50 (nM): 1000

---

Assay: GPCRScan assay: inhibition of GABA/PBR
Parameters: species or system Rattus norvegicus; radioligand conc. used [nm] 0.3 – 2.0, parental cells brain tissue

- structure: "CN1C(=O)[C@@H](N2CCc3c(nn(Cc4ccccc4)c3Br)C2=O)COc2ccccc21"
  value-unit: "nM"
  Ki: 347

---

Target: Casein kinase II subunit alpha' (Homo sapiens)
Sequence (P19784 whole entry): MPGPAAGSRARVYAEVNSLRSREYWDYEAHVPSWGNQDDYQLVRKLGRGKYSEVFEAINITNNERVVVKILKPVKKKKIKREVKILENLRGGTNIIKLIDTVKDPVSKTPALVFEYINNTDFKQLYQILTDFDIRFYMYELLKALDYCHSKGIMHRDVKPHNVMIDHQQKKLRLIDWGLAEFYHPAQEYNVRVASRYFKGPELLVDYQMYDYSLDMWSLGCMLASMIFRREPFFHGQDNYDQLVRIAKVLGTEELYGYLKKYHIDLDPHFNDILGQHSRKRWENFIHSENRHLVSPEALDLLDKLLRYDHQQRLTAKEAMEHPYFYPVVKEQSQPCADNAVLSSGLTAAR
Assay: CK2alpha2(C2A2LGK1) Takeda global kinase panel
experimental-endpoint: IC50 (nM)

- structure: "CN1C(=O)[C@@H](N2CCc3c(nn(Cc4ccccc4)c3Br)C2=O)COc2ccccc21"
  observed-value: 1000

---

Target: Microtubule-associated serine/threonine-protein kinase 1 (Homo sapiens)
experimental-endpoint: IC50

- compound: "CN1C(=O)[C@@H](N2CCc3c(nn(Cc4ccccc4)c3Br)C2=O)COc2ccccc21 [TP-030-2]"
  observed-value: "1000 nM"

---

Target: Serine/threonine-protein kinase PAK 5 (Homo sapiens, UniProt Q9P286)
pIC50: −log10 of the molar value.
experimental-endpoint: pIC50

- compound: "CN1C(=O)[C@@H](N2CCc3c(nn(Cc4ccccc4)c3Br)C2=O)COc2ccccc21 [TP-030-2]"
  target-of-assay: "Serine/threonine-protein kinase PAK 5 (Homo sapiens, UniProt Q9P286)"
  experimental-endpoint: "pIC50"
  observed-value: 6.00

---

Target: Activin receptor type-2A (Homo sapiens, UniProt P27037)

- structure: "CN1C(=O)[C@@H](N2CCc3c(nn(Cc4ccccc4)c3Br)C2=O)COc2ccccc21"
  target-of-assay: "Activin receptor type-2A (Homo sapiens, UniProt P27037)"
  IC50 / nM: 1000

---

Target: Receptor-interacting serine/threonine-protein kinase 3 (Homo sapiens, UniProt Q9Y572)
Sequence (Q9Y572 whole entry): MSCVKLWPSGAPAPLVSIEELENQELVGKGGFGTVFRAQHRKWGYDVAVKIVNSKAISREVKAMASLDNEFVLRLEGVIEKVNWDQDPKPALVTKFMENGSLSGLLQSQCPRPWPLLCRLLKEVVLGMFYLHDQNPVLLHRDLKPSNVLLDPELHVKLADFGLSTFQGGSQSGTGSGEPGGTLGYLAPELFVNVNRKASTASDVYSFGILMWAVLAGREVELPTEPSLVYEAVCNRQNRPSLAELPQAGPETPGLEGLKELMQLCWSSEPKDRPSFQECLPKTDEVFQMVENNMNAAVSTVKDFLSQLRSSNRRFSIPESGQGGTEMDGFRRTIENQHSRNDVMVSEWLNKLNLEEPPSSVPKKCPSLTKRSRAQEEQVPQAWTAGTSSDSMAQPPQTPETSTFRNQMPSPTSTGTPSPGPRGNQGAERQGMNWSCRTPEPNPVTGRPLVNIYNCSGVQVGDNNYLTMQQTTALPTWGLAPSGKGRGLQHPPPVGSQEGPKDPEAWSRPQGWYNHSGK
pIC50: −log10 of the molar value.
experimental-endpoint: pIC50

- compound: "CN1C(=O)[C@@H](N2CCc3c(nn(Cc4ccccc4)c3Br)C2=O)COc2ccccc21 [TP-030-2]"
  experimental-endpoint: "pIC50"
  observed-value: 6.00

---

Target: Mitotic checkpoint serine/threonine-protein kinase BUB1 (Homo sapiens)
Sequence (O43683 whole entry): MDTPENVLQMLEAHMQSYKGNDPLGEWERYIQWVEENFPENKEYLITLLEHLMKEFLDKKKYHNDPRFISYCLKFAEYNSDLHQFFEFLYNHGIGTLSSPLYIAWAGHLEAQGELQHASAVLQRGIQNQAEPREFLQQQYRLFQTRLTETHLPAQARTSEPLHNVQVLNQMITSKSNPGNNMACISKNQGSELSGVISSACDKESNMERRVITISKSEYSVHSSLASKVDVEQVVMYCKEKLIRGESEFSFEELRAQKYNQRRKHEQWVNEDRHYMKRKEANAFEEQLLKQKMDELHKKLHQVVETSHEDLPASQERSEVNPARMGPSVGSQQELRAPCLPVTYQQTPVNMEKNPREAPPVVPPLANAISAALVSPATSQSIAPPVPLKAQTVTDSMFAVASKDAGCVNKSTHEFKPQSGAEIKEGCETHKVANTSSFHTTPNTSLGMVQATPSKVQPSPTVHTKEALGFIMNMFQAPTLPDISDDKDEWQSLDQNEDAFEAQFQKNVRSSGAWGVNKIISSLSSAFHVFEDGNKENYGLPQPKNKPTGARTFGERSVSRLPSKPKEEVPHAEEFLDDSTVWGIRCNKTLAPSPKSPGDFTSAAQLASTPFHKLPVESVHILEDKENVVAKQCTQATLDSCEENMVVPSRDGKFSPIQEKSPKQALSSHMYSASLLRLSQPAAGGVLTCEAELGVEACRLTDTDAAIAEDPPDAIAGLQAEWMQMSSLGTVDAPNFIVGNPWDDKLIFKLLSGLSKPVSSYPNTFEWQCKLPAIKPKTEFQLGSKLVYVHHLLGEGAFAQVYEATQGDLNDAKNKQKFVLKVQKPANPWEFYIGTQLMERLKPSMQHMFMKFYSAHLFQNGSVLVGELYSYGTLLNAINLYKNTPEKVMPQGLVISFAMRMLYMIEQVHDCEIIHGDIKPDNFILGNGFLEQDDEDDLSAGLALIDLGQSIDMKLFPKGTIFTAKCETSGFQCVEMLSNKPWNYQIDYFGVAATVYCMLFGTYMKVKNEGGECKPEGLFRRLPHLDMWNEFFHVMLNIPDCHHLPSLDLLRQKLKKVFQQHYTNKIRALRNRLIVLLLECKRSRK
pIC50: −log10 of the molar value.
experimental-endpoint: pIC50

- molecule: "CN1C(=O)[C@@H](N2CCc3c(nn(Cc4ccccc4)c3Br)C2=O)COc2ccccc21 [TP-030-2]"
  observed-value: 6.00

---

Molecular target: Calcium/calmodulin-dependent protein kinase type 1B (Homo sapiens)
Test: CaMK1beta(PNCKLGRI) Takeda global kinase panel

- structure: "CN1C(=O)[C@@H](N2CCc3c(nn(Cc4ccccc4)c3Br)C2=O)COc2ccccc21"
  target-of-assay: "Calcium/calmodulin-dependent protein kinase type 1B (Homo sapiens)"
  IC50, nM: 1000

---

Target: Interleukin-1 receptor-associated kinase 4 (Homo sapiens, UniProt Q9NWZ3)
Sequence (Q9NWZ3 whole entry): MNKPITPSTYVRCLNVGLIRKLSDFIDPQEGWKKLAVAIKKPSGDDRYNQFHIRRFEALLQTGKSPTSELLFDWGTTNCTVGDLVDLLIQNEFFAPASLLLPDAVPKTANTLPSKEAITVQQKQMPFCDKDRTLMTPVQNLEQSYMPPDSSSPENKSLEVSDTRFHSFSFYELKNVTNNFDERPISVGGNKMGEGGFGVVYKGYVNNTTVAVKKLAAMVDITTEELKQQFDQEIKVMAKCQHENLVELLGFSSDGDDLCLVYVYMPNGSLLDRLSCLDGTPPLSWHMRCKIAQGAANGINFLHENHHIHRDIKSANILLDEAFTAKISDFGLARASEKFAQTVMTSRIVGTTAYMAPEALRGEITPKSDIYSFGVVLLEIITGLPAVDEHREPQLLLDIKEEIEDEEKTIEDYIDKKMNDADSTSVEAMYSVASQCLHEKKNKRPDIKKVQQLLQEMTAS
Assay: IRAK4(IRK4LGF1) Takeda global kinase panel
experimental-endpoint: IC50

- molecule: "CN1C(=O)[C@@H](N2CCc3c(nn(Cc4ccccc4)c3Br)C2=O)COc2ccccc21 [TP-030-2]"
  observed-value: "1 µM"

---

Biological target: Myosin light chain kinase family member 4 (Homo sapiens)
pIC50: −log10 of the molar value.

- compound: "CN1C(=O)[C@@H](N2CCc3c(nn(Cc4ccccc4)c3Br)C2=O)COc2ccccc21 [TP-030-2]"
  pIC50: 6.00

---

Target: Mitogen-activated protein kinase kinase kinase 9 (Homo sapiens, UniProt P80192)
Sequence (P80192 whole entry): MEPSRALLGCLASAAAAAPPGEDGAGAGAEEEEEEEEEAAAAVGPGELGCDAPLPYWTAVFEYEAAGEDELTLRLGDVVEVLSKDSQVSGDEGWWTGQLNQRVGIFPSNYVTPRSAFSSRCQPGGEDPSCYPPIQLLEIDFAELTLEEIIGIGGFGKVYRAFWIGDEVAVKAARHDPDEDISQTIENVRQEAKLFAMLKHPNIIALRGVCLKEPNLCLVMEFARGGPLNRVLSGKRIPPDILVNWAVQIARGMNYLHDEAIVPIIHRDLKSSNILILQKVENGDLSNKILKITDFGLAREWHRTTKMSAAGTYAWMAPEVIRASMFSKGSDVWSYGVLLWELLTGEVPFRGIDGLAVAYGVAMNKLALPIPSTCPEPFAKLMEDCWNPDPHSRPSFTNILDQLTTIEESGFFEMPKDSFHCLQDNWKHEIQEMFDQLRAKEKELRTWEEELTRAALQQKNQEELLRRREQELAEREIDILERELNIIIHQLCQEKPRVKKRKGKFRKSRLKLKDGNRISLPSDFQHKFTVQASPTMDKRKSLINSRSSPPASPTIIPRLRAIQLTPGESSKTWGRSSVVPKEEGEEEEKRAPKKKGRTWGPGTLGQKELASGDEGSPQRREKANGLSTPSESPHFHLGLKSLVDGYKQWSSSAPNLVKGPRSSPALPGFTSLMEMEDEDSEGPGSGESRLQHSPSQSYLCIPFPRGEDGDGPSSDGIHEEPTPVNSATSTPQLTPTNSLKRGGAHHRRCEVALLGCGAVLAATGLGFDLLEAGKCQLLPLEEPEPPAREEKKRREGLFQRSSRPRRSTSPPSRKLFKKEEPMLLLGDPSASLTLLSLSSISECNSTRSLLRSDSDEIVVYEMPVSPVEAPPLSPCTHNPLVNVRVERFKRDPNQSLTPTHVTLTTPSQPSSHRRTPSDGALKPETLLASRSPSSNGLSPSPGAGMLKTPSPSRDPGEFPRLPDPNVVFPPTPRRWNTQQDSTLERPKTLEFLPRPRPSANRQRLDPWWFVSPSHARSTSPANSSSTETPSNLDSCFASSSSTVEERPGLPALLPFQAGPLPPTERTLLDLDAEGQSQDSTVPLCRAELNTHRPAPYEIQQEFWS
Assay: MLK1(M3K9LGF1) Takeda global kinase panel

- structure: "CN1C(=O)[C@@H](N2CCc3c(nn(Cc4ccccc4)c3Br)C2=O)COc2ccccc21"
  IC50, nM: 1000

---

Biological target: Serine/threonine-protein kinase D3 (Homo sapiens, UniProt O94806)
Sequence (O94806 whole entry): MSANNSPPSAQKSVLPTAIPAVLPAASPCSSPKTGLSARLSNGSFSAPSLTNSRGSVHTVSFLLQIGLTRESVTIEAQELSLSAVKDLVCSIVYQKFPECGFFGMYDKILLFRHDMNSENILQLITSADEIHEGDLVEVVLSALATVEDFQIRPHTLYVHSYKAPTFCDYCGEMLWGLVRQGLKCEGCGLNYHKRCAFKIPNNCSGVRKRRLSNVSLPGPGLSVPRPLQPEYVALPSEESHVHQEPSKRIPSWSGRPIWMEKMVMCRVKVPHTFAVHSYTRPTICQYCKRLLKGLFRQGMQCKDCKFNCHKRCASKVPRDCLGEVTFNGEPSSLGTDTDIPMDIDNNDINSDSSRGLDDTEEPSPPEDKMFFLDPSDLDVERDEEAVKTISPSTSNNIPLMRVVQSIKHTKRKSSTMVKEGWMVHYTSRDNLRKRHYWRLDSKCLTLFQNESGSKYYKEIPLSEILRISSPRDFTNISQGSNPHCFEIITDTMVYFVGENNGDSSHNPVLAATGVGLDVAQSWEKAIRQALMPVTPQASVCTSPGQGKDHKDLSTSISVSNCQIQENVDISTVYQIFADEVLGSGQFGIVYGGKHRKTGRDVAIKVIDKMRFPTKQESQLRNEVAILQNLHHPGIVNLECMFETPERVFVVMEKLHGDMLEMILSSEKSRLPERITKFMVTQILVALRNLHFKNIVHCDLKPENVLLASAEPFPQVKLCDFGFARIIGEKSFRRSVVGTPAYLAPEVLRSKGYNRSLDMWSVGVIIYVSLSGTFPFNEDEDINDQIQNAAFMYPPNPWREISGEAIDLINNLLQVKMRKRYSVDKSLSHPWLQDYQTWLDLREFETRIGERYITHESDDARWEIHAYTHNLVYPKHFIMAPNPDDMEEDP
pIC50: −log10 of the molar value.
experimental-endpoint: pIC50

- structure: "CN1C(=O)[C@@H](N2CCc3c(nn(Cc4ccccc4)c3Br)C2=O)COc2ccccc21"
  experimental-endpoint: "pIC50"
  observed-value: 6.00

---

Molecular target: Mixed lineage kinase domain-like protein (Homo sapiens, UniProt Q8NB16)
experimental-endpoint: IC50 (nM)

- structure: "CN1C(=O)[C@@H](N2CCc3c(nn(Cc4ccccc4)c3Br)C2=O)COc2ccccc21"
  value-unit: "nM"
  observed-value: 1000

Measured values drawn from ChEMBL document CHEMBL4507326 for this set.
